The molecules listed here are annotated with their pIC50.
Target: epithelial sodium channel (ENaC) (Mus musculus, UniProt Q61180+Q9WU38+Q9WU39)
Construct: Mouse kidney M-1 cells were cultivated in DMEM containing 5% FCS and 5 μM dexamethasone; endogenous in cells
Sequence (Q61180 1-699): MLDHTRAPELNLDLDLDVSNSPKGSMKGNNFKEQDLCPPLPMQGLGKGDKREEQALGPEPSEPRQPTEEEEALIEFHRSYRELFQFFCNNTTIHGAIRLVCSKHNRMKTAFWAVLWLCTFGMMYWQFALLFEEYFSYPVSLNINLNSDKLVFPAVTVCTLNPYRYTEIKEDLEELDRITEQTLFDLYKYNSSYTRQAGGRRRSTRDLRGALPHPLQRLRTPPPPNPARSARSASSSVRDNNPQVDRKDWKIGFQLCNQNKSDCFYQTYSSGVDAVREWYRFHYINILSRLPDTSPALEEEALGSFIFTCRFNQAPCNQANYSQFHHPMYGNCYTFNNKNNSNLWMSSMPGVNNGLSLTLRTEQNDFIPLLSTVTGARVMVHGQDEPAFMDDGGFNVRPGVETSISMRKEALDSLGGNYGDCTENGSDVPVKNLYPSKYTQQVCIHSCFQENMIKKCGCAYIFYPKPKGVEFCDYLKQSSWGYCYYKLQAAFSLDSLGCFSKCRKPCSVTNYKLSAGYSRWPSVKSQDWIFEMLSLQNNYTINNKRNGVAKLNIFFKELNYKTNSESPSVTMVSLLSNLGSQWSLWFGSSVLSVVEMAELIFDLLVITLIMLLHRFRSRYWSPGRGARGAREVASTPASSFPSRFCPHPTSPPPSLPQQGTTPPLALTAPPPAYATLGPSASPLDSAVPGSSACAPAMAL
Sequence (Q9WU38 1-638): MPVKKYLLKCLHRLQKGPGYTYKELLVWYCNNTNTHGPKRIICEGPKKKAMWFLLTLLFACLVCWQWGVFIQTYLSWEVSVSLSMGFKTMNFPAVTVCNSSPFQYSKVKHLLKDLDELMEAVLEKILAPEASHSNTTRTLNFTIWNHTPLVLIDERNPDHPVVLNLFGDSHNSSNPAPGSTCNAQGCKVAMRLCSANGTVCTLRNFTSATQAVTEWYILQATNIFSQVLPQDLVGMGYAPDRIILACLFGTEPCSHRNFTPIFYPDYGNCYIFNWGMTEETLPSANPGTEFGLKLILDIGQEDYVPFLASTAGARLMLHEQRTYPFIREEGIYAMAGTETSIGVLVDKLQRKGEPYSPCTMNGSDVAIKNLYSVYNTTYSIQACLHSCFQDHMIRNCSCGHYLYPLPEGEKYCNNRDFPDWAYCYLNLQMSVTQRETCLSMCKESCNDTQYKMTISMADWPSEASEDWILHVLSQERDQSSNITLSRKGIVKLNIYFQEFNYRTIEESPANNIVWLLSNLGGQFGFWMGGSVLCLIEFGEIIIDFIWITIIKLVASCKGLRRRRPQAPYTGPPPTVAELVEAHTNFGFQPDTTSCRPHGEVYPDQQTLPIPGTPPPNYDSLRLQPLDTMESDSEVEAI
Sequence (Q9WU39 1-655): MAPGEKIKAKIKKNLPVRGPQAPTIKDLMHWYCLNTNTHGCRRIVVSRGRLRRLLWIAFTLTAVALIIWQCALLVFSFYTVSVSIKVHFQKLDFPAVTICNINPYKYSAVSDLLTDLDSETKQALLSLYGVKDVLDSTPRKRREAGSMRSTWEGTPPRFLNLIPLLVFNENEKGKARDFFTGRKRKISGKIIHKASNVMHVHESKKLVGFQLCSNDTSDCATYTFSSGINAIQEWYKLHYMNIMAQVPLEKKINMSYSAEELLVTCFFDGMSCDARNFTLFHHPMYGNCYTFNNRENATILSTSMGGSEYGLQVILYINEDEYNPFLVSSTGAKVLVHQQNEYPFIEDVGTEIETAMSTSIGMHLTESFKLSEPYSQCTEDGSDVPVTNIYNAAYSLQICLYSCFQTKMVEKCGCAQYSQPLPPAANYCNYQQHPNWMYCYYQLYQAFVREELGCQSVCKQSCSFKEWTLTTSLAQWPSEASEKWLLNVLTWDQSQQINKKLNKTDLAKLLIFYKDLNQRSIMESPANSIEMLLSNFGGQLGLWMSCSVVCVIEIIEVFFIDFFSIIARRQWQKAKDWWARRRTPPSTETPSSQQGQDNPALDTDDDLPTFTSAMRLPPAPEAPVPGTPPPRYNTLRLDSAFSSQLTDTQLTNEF
Assay: Ussing chamber: inhibition of amiloride sensitive short circuit current (I_sc) in M-1 cells
Conditions: Mouse kidney M-1 cells on transwell filters, Ussing chamber at 37° C., compound added to the apical solution
The value called pIC50 is obtained by taking minus log10 of the concentration in mol/L.

>>> df
                                   molecule                           measured_target  readout_type  recorded_measurement
0  NC(=NC(=O)c1nc(Cl)c(N)nc1N)NCC1(Cc2ccccc2)CCNCC1 [Example 2.11]  epithelial sodium channel (ENaC) (Mus musculus, UniProt Q61180+Q9WU38+Q9WU39)         pIC50                  7.26
1  NCCC(=O)N1CCC(CCc2ccccc2)(CNC(N)=NC(=O)c2nc(Cl)c(N)nc2N)CC1 [Example 2.2]  epithelial sodium channel (ENaC) (Mus musculus, UniProt Q61180+Q9WU38+Q9WU39)         pIC50                  7.72
2  CC(C)N1CCC(CCc2ccccc2)(CNC(N)=NC(=O)c2nc(Cl)c(N)nc2N)CC1 [Example 1.7]  epithelial sodium channel (ENaC) (Mus musculus, UniProt Q61180+Q9WU38+Q9WU39)         pIC50                  7.20
3  NCCCN1CCC(CCc2ccccc2)(CNC(N)=NC(=O)c2nc(Cl)c(N)nc2N)CC1 [Example 2.5]  epithelial sodium channel (ENaC) (Mus musculus, UniProt Q61180+Q9WU38+Q9WU39)         pIC50                  7.19
4  NC(=NC(=O)c1nc(Cl)c(N)nc1N)NCC1(CCc2ccccc2)CCN(C(=O)CCC(=O)O)CC1 [Example 3.1]  epithelial sodium channel (ENaC) (Mus musculus, UniProt Q61180+Q9WU38+Q9WU39)         pIC50                  7.40
5  CCNC(=O)N1CCC(CCc2ccccc2)(CN/C(N)=N/C(=O)c2nc(Cl)c(N)nc2N)CC1 [Example 1.12]  epithelial sodium channel (ENaC) (Mus musculus, UniProt Q61180+Q9WU38+Q9WU39)         pIC50                  7.92
6  N=C(N)NCCC(=O)N1CCC(CCc2ccccc2)(CNC(N)=NC(=O)c2nc(Cl)c(N)nc2N)CC1 [Example 4.1]  epithelial sodium channel (ENaC) (Mus musculus, UniProt Q61180+Q9WU38+Q9WU39)         pIC50                  7.92
7  CC(C)(C)OC(=O)NCCCCC(=O)N1CCC(CNC(N)=NC(=O)c2nc(Cl)c(N)nc2N)(Cc2ccccc2)CC1 [Example 1.26]  epithelial sodium channel (ENaC) (Mus musculus, UniProt Q61180+Q9WU38+Q9WU39)         pIC50                  7.72
8  COC(=O)CCC(=O)N1CCC(CCc2ccccc2)(CNC(N)=NC(=O)c2nc(Cl)c(N)nc2N)CC1 [Example 1.14]  epithelial sodium channel (ENaC) (Mus musculus, UniProt Q61180+Q9WU38+Q9WU39)         pIC50                  7.70
9  CC(C)(C)OC(=O)NCCCN1CCC(CCc2ccccc2)(CNC(N)=NC(=O)c2nc(Cl)c(N)nc2N)CC1 [Example 1.28]  epithelial sodium channel (ENaC) (Mus musculus, UniProt Q61180+Q9WU38+Q9WU39)         pIC50                  7.44

Short answer for NC(=NC(=O)c1nc(Cl)c(N)nc1N)NCC1(CCc2ccccc2)CCN(C(=O)NCCC(=O)O)CC1 [Example 3.2] : pIC50 was 6.83

response.value for CC(C)NC(=O)N1CCC(CNC(N)=NC(=O)c2nc(Cl)c(N)nc2N)(Cc2ccccc2)CC1 [Example 1.8] (field: pIC50) = 7.77

For COC(=O)CCC(=O)N1CCC(CCc2ccccc2)(CN/C(N)=N/C(=O)c2nc(Br)c(N)nc2N)CC1 [Example 10] the molecule record lists pIC50 as 7.49

Query CN1CCN(C(=O)N2CCC(CCc3ccccc3)(CN/C(N)=N/C(=O)c3nc(Cl)c(N)nc3N)CC2)CC1 [Example 1.53] yields pIC50 of 7.85

Entry under test: NCCCN1CCC(CNC(N)=NC(=O)c2nc(Cl)c(N)nc2N)(Cc2ccccc2)CC1 [Example 2.14] . Its pIC50 was 6.92
